Biological target: 5-hydroxytryptamine receptor 7 (Homo sapiens) (UniProt P34969)
Sequence (P34969 whole entry): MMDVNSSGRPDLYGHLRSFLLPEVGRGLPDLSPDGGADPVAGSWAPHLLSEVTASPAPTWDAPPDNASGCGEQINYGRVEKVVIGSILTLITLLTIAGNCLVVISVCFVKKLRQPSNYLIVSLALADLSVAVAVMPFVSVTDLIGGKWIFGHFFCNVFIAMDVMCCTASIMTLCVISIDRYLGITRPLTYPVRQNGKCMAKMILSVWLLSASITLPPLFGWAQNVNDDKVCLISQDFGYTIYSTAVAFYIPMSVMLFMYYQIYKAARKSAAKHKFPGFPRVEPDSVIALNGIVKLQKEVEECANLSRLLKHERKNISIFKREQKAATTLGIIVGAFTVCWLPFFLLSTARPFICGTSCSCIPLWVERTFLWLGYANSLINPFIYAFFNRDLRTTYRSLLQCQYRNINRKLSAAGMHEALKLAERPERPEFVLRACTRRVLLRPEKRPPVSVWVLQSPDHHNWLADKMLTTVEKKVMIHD
Test: Agonist activity at recombinant human 5-HT7R assessed as induction of cAMP levels at 10 uM by HTRF assay relative to agonist
Format: functional
ENDPOINT: Activity (%)
Write the number in % without appending the unit.

### Prompt What does the record list as Activity for COc1cccc(C(=O)NCCCN(C)Cc2ccccc2)c1 ?
### Response -5

### Prompt Which Activity value belongs to CN(CCCNC(=O)c1cccc(Br)c1)Cc1ccccc1 ?
### Response 21

### Prompt # lookup: Activity of CCCc1ccc(C(=O)NCCCN(C)Cc2ccccc2)cc1
### Response 25

### Prompt Looking for the measured Activity of COc1ccc(C(=O)NCCCN(C)Cc2ccccc2)cc1 , can you help?
### Response -1

### Prompt Entry under review: CN(CCCNC(=O)c1ccc(Br)cc1)Cc1ccccc1 . Reported Activity?
### Response 9

### Prompt Quick one: Activity of CN(CCCNC(=O)c1ccc([N+](=O)[O-])cc1)Cc1ccccc1 ?
### Response 33

* * *

Target: D(1A) dopamine receptor (Homo sapiens)
Assay: Antagonist activity at recombinant human dopamine D1 receptor assessed as inhibition of agonist-induced cAMP induction at 10 uM by HTRF assay
Format: functional
ENDPOINT: inhibition (%)
Reply numerically in %, unit not repeated.

### Prompt Which inhibition is reported for this compound? CN(CCNC(=O)c1ccc(C#N)cc1)Cc1ccccc1
### Response 0

### Prompt Given the compound COc1ccc(C(=O)NCCCN(C)Cc2ccccc2)cc1 , what is its reported inhibition?
### Response -2

### Prompt What does the data say about its inhibition? Entry: CN(CCCNC(=O)c1ccc([N+](=O)[O-])cc1)Cc1ccccc1
### Response 3

### Prompt Would you mind telling me what inhibition value was observed for CN(CCNC(=O)c1ccc([N+](=O)[O-])cc1)Cc1ccccc1 ?
### Response 3

### Prompt Requested field: inhibition. Item: CN(CCCNC(=O)c1cccc(Br)c1)Cc1ccccc1
### Response 1

### Prompt Please look up its inhibition: CN(CCNC(=O)c1ccc(Cl)cc1)Cc1ccccc1
### Response 1

### Prompt Looking for the measured inhibition of COc1cccc(C(=O)NCCCN(C)Cc2ccccc2)c1 , can you help?
### Response 0

### Prompt Can you look up the measured inhibition of CN(CCCNC(=O)c1ccc(Cl)cc1)CCc1ccccc1 for me?
### Response 35

### Prompt Bench note: what inhibition did CCCc1ccc(C(=O)NCCCN(C)Cc2ccccc2)cc1 show?
### Response 6

### Prompt Look at this compound and give its reported inhibition. CN(CCCNC(=O)c1ccc(C(F)(F)F)cc1)Cc1ccccc1
### Response 9

### Prompt Report inhibition for CN(CCCNC(=O)c1ccc(Br)cc1)Cc1ccccc1 please.
### Response 3

### Prompt Tell me the measured inhibition of CN(CCCNC(=O)c1ccc(Cl)cc1)Cc1ccccc1 , please.
### Response 4

* * *

Target: Cannabinoid receptor 1 (Homo sapiens)
Assay: Agonist activity at recombinant human CB1 receptor […] at 10 uM by HTRF assay relative to agonist
Type: functional
Please respond with reported Activity for every item in the list.
Could you give me the number in %? Just the number is fine.

### Prompt Query the reported Activity for Cannabinoid receptor 1 (Homo sapiens); item: COc1cccc(C(=O)NCCCN(C)Cc2ccccc2)c1
### Response 6

### Prompt # value lookup — system Cannabinoid receptor 1 (Homo sapiens), readout Activity, item CCCc1ccc(C(=O)NCCCN(C)Cc2ccccc2)cc1
### Response -16

### Prompt Param readout = Activity; param system = Cannabinoid receptor 1 (Homo sapiens); param query = CN(CCCNC(=O)c1ccc([N+](=O)[O-])cc1)Cc1ccccc1 ; response: value
### Response 3

### Prompt Give recorded Activity with Cannabinoid receptor 1 (Homo sapiens) for the following molecule: CN(CCNC(=O)c1ccc([N+](=O)[O-])cc1)Cc1ccccc1
### Response 8

### Prompt Entry CN(CCNC(=O)c1ccc(C#N)cc1)Cc1ccccc1 , system Cannabinoid receptor 1 (Homo sapiens): what Activity was measured?
### Response -1

### Prompt Fill in the recorded Activity for this molecule, with Cannabinoid receptor 1 (Homo sapiens) as test system: COc1ccc(C(=O)NCCCN(C)Cc2ccccc2)cc1
### Response 6

### Prompt Any idea what Activity came out for CN(CCCNC(=O)c1cccc(Br)c1)Cc1ccccc1 on Cannabinoid receptor 1 (Homo sapiens)?
### Response -16

### Prompt Missing value: Activity, Cannabinoid receptor 1 (Homo sapiens), entry CN(CCNC(=O)c1ccc(Cl)cc1)Cc1ccccc1 . Fill in?
### Response -7

### Prompt Find the measured Activity: item CN(CCCNC(=O)c1ccc(C(F)(F)F)cc1)Cc1ccccc1 , target or system Cannabinoid receptor 1 (Homo sapiens).
### Response -12

### Prompt Field: Activity (Cannabinoid receptor 1 (Homo sapiens)). Entry: CN(CCCNC(=O)c1ccc(Cl)cc1)CCc1ccccc1
### Response -3

### Prompt Record CN(CCCNC(=O)c1ccc(Br)cc1)Cc1ccccc1 : what is its Activity with Cannabinoid receptor 1 (Homo sapiens)?
### Response -11

### Prompt Short answer please: Activity, Cannabinoid receptor 1 (Homo sapiens), entry CN(CCCNC(=O)c1ccc(Cl)cc1)Cc1ccccc1
### Response 3
